# Tgt: HDAC3 (Homo sapiens (Human), UniProt O15379)
# Sequence (O15379 whole entry): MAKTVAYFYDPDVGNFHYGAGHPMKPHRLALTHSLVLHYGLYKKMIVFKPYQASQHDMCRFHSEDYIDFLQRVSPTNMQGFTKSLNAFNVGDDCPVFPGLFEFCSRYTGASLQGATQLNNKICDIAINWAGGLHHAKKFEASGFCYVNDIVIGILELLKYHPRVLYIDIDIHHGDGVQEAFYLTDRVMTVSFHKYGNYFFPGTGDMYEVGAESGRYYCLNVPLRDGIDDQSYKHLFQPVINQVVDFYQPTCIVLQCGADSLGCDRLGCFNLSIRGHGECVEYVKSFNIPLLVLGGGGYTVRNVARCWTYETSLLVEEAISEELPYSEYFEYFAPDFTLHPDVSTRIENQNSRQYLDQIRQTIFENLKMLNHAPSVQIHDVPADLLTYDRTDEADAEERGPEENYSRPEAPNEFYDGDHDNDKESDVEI
# Sequence (Q9Y618 395-489 partner): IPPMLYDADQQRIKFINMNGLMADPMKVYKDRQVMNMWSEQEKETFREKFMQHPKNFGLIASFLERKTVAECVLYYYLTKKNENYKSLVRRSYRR
Checkbox rule: IC50 lower than 2000 nM = true; IC50 not lower than 2000 nM = false.

>>> assigned_class("CCOC(=O)N1CCC(Nc2ncc(C(=O)NO)cn2)(C(C)C)CC1")
"false"
>>> assigned_class("COc1ccc(NC(=O)N2CCC(Nc3ncc(C(=O)NO)cn3)(c3ccccc3)CC2)cc1")
"true"
>>> assigned_class("Nc1ccc(-c2cccs2)cc1NC(=O)c1ccc2c(c1)cc(C1CC1)n2CCN1CCOCC1")
"true"
>>> assigned_class("O=C(NO)c1cnc(NC2(c3ccccc3)CCN(C(=O)Nc3ccc(F)cc3)CC2)nc1")
"true"
>>> assigned_class("O=C(NO)c1cnc(NC2(c3ccccc3)CCN(C(=O)OCc3ccccc3)CC2)nc1")
"true"
>>> assigned_class("O=C(NO)c1cnc(NC2(c3ccccc3)CCN(c3ccccc3)CC2)nc1")
"true"
>>> assigned_class("Cc1ccc(S(=O)(=O)N2CCC(Nc3ncc(C(=O)NO)cn3)(c3ccccc3)CC2)cc1")
"false"

---

# Tgt: HDAC1 (Homo sapiens (Human), UniProt Q13547)
# Sequence (Q13547 whole entry): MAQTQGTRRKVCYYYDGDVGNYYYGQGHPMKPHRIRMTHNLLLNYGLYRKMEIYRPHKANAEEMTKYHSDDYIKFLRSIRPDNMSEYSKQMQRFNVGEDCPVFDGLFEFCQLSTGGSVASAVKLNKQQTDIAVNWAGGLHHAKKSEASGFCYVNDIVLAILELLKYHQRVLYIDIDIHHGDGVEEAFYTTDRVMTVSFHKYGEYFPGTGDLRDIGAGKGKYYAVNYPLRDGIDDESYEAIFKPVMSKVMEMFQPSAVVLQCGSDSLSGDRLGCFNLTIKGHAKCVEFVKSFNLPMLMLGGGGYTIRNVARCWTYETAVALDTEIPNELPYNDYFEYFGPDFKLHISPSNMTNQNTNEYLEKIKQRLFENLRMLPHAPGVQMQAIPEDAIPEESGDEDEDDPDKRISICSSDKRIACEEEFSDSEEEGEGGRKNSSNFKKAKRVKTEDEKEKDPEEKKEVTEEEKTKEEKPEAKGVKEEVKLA
Checkbox rule: IC50 lower than 0.1 µM = True; IC50 not lower than 0.1 µM = False.

>>> assigned_class("CC(=O)N1CCC(Nc2ncc(C(=O)NO)cn2)(C(C)C)CC1")
"False"
>>> assigned_class("C[C@@H](C(=O)N1CCC(C)(Nc2ncc(C(=O)NO)cn2)CC1)c1ccccc1")
"False"
>>> assigned_class("O=C(NO)c1cnc(NC2(c3ccccc3)CCN(c3ccccc3)CC2)nc1")
"False"
>>> assigned_class("O=C(NO)c1cnc(NC2(c3ccccc3)CCN(C(=S)Nc3ccccc3)CC2)nc1")
"True"
>>> assigned_class("O=C(NO)c1cnc(NC2(c3ccccc3)CCN(C(=O)Nc3ccccc3)CC2)nc1")
"True"
>>> assigned_class("O=C(NO)c1cnc(NC2(c3ccccc3)CCN(C(=O)Nc3ccc(F)cc3)CC2)nc1")
"True"
>>> assigned_class("O=C(NO)c1cnc(NC2(c3ccccc3)CCN(C(=O)Nc3ccccc3F)CC2)nc1")
"True"
>>> assigned_class("Cc1ccccc1S(=O)(=O)N1CCC(Nc2ncc(C(=O)NO)cn2)(c2ccccc2)CC1")
"False"

---

pIC50: −log10 of the molar value.
pIC50, HDAC6 (Homo sapiens (Human), UniProt Q9UBN7): measured values
Observable: pIC50

>>> value_reported("CC(C)C1(Nc2ncc(C(=O)NO)cn2)CCN(C(=O)OCc2ccccc2)CC1")
8.29
>>> value_reported("C[C@@H](C(=O)N1CCC(C)(Nc2ncc(C(=O)NO)cn2)CC1)c1ccccc1")
7.92
>>> value_reported("CC(C)C[C@H](C(=O)N1CCC(Nc2ncc(C(=O)NO)cn2)(c2ccccc2)CC1)c1ccccc1 (stereo in doubt)")
7.96
>>> value_reported("O=C(NO)c1cnc(NC2(c3ccccc3)CCN(C(=O)Nc3c(F)cccc3F)CC2)nc1")
8.43
>>> value_reported("O=C(NO)c1cnc(NC2(c3ccccc3)CCN(S(=O)(=O)c3ccccc3)CC2)nc1")
8.34
>>> value_reported("CNC(=O)N1CCC(Nc2ncc(C(=O)NO)cn2)(c2ccccc2)CC1")
8.77
>>> value_reported("Cc1ccc(S(=O)(=O)N2CCC(Nc3ncc(C(=O)NO)cn3)(c3ccccc3)CC2)cc1")
8.35
>>> value_reported("O=C(NO)c1cnc(NC2(c3ccccc3)CCN(C(=O)OCc3ccccc3)CC2)nc1")
8.59
>>> value_reported("O=C(NO)c1cnc(NC2(c3ccccc3)CCN(C(=O)Nc3cccc(F)c3)CC2)nc1")
8.60
>>> value_reported("O=C(NO)c1cnc(NC2(c3ccccc3)CCN(C(=S)Nc3ccccc3)CC2)nc1")
8.62
>>> value_reported("CN(C(=O)N1CCC(Nc2ncc(C(=O)NO)cn2)(c2ccccc2)CC1)c1ccccc1")
8.66
>>> value_reported("Cc1ccc(NC(=O)N2CCC(Nc3ncc(C(=O)NO)cn3)(c3ccccc3)CC2)cc1")
8.70
>>> value_reported("O=C(NO)c1cnc(NC2(c3ccccc3)CCN(C(=O)Cc3c[nH]c4ccccc34)CC2)nc1")
8.55
